Values from the domain aggregation screens of Martell et al. (2025)

Reported soluble fraction (log2) values for the following sequences.
# ASSAY INFO: soluble fraction after stress (log2 fold change); higher = more stays soluble; pooled small domains, quantitative proteomics;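 also: 20 min heating vs room temperature control held 20 min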
# SETTINGS: stress: 75 degC

Prompt: Look up soluble fraction (log2) for this sequence: `HMDDPISSMVNRIRLAFGLSVTDLAAVLGVERPTIYSWLKDGSTPAPARLTRVRQVLSLADTW`
Response: -0.729

Prompt: Look up soluble fraction (log2) for this sequence: `HMVEVPKVAGMSTAQGVSELEQKGFVVNRTESYDDTVPKGNIISQTPEGGTKVPSGSAVTIKISQGAE`
Response: -0.159

Prompt: Look up soluble fraction (log2) for this sequence: `HMSQSLSGWAAKDLEVKSGADASYRTVGRLPKGSKVSGKIINGYLHIEFDGSMRYVPVSGISKTE`
Response: -0.6

Prompt: Look up soluble fraction (log2) for this sequence: `HMAFRLPNGYGTIRRLTGNRRKPYVALVNPTQVFDDEKGTSHYKYDLLGTFAEKIDAYNAVMQYHKSPGGL`
Response: -1.13

Prompt: Look up soluble fraction (log2) for this sequence: `HMKSLLSRREQEVLELVSRGFSYSEIAELKNLSVHTIQTHIKSLYGKLEVHSKMEAVLEATRMGLLPQ`
Response: -2.34

More entries:
Prompt: Look up soluble fraction (log2) for this sequence: `HMQITSTDEIEKMIDELIAANPEQTKQYQNGNHKVAGWFVGQMMKASKGKANPQMVNNLLQKKL`
Response: 0.278

Prompt: Look up soluble fraction (log2) for this sequence: `HMNPSRPASKEELLGLFEHLERALDAVTFFRPAEKKPVVVQTLRAMLTKASFTEQDIRTMRGVIAALEN`
Response: -1.59

Prompt: Look up soluble fraction (log2) for this sequence: `HMSDFSSNLRRLRKRAGLSQDALAEKLSVARQTVSSWERGNSYPDLDMLVRISDALATDPNELLYPN`
Response: -0.167

Prompt: Look up soluble fraction (log2) for this sequence: `HMPYNRRYLISNADGALYTVEENGLVKLEETNLTAELFETRGMQDIPDGKLLITLHDPTILYWHDSENLFP`
Response: -1.5

Prompt: Look up soluble fraction (log2) for this sequence: `HMKRSFGSVRQLRSGNYQARYTGPDTVRHTSPVTYTSKMDAEAWLVDERRKISSGTWTPPAR`
Response: -0.193

Prompt: Look up soluble fraction (log2) for this sequence: `HMKEAISIYPNPVKDILTIRGMDETSGVSFKLYDVTGNLLLESTHSELDMSGLNRGVYFLDIAGDVRKVVK`
Response: -0.342

Prompt: Look up soluble fraction (log2) for this sequence: `HMGKEIEAPDFKNMTLKEAKIAAKEYKIRIKKGDEVVSEEVEKGRIVSQDPDAGTTIKTGSTVTVNISKGL`
Response: 0.131

Prompt: Look up soluble fraction (log2) for this sequence: `HMNKELVVPDLTDMRVKDAEFEAHQVGMRTEIVDSVYVRRLKRGYVYKQNPVPGSKVKKGRRIALTINAV`
Response: 0.212

Prompt: Look up soluble fraction (log2) for this sequence: `HMTTQERVSYSAFINDVETGRVAKVVISGYTIEGTRTNNSSFVTERPYGVDSNLSEVLMQNSVSIEGKA`
Response: -0.122

Prompt: Look up soluble fraction (log2) for this sequence: `HMEDQLDSLKDIIYDYLENNELYYNDLQEFKKIIIENMEFIHPNLNHKLIDNNFFKLINFKLEYNF`
Response: -0.152

Prompt: Look up soluble fraction (log2) for this sequence: `HMLKNYATPEQRAQLDMLKDKGIIGENELMQLGKYPSQDKASEVLENHADAVKMLDSDEISNRAEAIRSHD`
Response: 0.173

Prompt: Look up soluble fraction (log2) for this sequence: `HMPIDQAKRKKEIIQNFGIRKIYKFSEIFDLKFGRDNIIVTFLIILDMIKEGVVEINENKEEIEFEYK`
Response: -0.152
